ASSAYED TARGET: Tyrosine-protein phosphatase non-receptor type 1 (Homo sapiens)
Sequence (P18031 whole entry): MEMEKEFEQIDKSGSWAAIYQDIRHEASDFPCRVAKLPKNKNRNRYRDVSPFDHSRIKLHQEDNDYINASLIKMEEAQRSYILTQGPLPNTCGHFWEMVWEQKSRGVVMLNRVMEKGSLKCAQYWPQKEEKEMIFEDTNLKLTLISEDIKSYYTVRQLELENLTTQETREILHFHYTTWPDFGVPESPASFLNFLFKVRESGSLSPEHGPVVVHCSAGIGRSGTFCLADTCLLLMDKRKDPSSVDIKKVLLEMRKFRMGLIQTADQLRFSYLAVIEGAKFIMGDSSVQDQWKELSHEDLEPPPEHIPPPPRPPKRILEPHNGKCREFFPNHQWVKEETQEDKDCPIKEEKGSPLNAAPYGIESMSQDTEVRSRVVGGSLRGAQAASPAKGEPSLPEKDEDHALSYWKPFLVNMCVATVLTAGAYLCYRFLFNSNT
PROTOCOL DETAILS: Inhibition of recombinant PTP1B (unknown origin) assessed as hydrolysis of pNPP to pNP after 30 mins
ATTRIBUTE MEASURED: IC50 (nM)

Completed entries (count: 2):
1. CCCCOc1ccc(S(=O)(=O)N(Cc2ccc(N(CC(=O)OC)S(C)(=O)=O)cc2)c2ccc(NS(=O)(=O)Cc3ccccc3)cc2)cc1 = 1710
2. CCOc1ccc(S(=O)(=O)Nc2ccc(N(Cc3ccc(N(CC(=O)OC)S(=O)(=O)CC)cc3)S(=O)(=O)Cc3ccccc3)cc2)cc1 = 470

[a] CCCOc1ccc(S(=O)(=O)N(Cc2ccc(N(CC(=O)OC)S(C)(=O)=O)cc2)c2ccc(CN(Cc3ccccc3)S(C)(=O)=O)cc2)cc1
[b] COC(=O)CN(c1ccc(CN(c2ccc(CN(Cc3ccc(C)cc3)S(C)(=O)=O)cc2)S(=O)(=O)Cc2ccccc2)cc1)S(C)(=O)=O
-- ask Which shows the larger IC50 value: a or b ? State the label of the item chosen.
-- reply b
(b: 20300 nM, a: 902 nM)
